Study target: Aurora kinase A (Homo sapiens) (UniProt O14965)
Sequence (whole entry): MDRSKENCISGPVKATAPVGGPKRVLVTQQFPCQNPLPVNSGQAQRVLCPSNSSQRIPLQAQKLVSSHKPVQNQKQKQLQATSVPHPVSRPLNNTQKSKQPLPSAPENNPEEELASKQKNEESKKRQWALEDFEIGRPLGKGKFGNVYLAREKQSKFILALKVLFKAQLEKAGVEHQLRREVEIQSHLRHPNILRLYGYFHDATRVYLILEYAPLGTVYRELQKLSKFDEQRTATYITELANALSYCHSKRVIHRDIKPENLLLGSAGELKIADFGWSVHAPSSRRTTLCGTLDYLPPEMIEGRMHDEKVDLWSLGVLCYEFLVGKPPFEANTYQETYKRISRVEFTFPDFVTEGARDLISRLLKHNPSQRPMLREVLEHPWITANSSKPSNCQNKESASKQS
Protocol conditions: Compound concentration 20.0 uM, Protein concentration 2.0 uM, Result type QC Liability
Description: Thermal Shift Assay. Domain: start/stop: E122-S403
Our labelling divides records by ΔTm into ranges: low end (below -0.5 °C), middle (-0.5 °C to below 0.4 °C), high end (0.4 °C or more)

Cc1cc(=O)oc2cc(NC(=O)[C@H](Cc3ccc(I)cc3)NC(=O)[C@H]3N[C@@H]4CC[C@H]3C4)ccc12; middle

# next compound below
Query: Lab note: which band did CN1CCN(c2ccc(/C=C(\C#N)c3ccccc3Br)cc2)CC1 land in?
Result: low end

* * *

Study target: Aurora kinase A (Homo sapiens) (UniProt O14965)
Sequence (whole entry): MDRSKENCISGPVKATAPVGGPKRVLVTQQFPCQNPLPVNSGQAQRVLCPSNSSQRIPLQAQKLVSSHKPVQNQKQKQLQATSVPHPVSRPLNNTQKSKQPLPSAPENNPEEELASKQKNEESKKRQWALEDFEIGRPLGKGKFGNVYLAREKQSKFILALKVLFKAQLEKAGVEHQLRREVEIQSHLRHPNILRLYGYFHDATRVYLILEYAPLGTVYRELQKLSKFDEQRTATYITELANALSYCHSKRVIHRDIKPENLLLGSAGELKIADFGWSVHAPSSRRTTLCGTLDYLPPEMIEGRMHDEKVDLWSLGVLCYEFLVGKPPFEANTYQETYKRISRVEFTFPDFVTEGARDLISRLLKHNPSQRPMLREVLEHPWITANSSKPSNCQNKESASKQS
Protocol conditions: Compound concentration 20.0 uM, Protein concentration 2.0 uM, Result type QC Liability
# if value of ΔTm reaches 0.9 °C, tag Criterion met; if it stays below, tag Criterion not met

Here's what some known entries look like.
CC1CN(CC(=O)N2CC(C)(C)c3nc(CO)c(Cc4ccc(F)cc4)cc32)C(CN2CCOCC2C)CN1 (stereo not drawn); Criterion not met
CC(C)(O)CNC(=O)N1C(=O)N(c2cccc(C(F)(F)F)c2)C2=C(C(=O)CC2)[C@H]1c1ccc(C#N)cc1; Criterion not met
Cc1c(NC(=O)c2ccc(C(C)(C)C)cc2)cccc1-c1cn(C)c(=O)c(Nc2ccc(C(=O)N3CCOCC3)cc2)n1; Criterion met

Query: ΔTm >= 0.9 °C for CC(C)S(=O)(=O)c1ccccc1Nc1nc(N[C@@H]2CCCN(CCCCCCCNC(=O)COc3cccc4c3C(=O)N(C3CCC(=O)N(C)C3=O)C4=O)C2)ncc1Cl (stereo partly drawn) ?
Result: Criterion met

Query: Is ΔTm for CC(C)(C#Cc1ccc(NC(=O)COc2ccccc2C(=O)c2ccccc2)c(Cl)c1)C(=O)O at or above 0.9 °C?
Result: Criterion not met

Query: Given N#Cc1cccc(-c2c[nH]c3ncnc(N4CCOCC4)c23)c1 , state whether its ΔTm is at least 0.9 °C.
Result: Criterion met

Query: Quick check, ΔTm >= 0.9 °C? CCc1ncnc(N2CCN(C(C)=O)CC2)c1C#Cc1ccc(N)nc1
Result: Criterion not met

* * *

Study target: Casein kinase I isoform delta (Homo sapiens)
Protocol conditions: Compound concentration 20.0 uM, Protein concentration 2.0 uM, Result type QC Liability
Description: Thermal Shift Assay. Domain: start/stop: M1-K294
Here the recorded ΔTm is given for each entry.
Report the value in °C with no unit label.

Please review the following examples before continuing.
CCc1ccc(-c2ncn(CC3(F)CCN(C)CC3)c2-c2ccnc3[nH]ccc23)nc1; 0.57
O=C(Nc1ccc(OC(F)(F)Cl)cc1)c1cnc(N2CC[C@@H](O)C2)c(-c2cc[nH]n2)c1; 0.99
COc1cc2c(NC3CCN(C(C)C)CC3)nc(C3CCCCC3)nc2cc1OCCCN1CCCC1; 0.11
COc1cc(N[C@@H]2CCCC[C@]2(O)C(F)(F)F)ccc1F; 0.65

For C[C@H](CCC(=O)O)[C@H]1CC[C@H]2[C@@H]3[C@H](O)C[C@@H]4C[C@H](O)CC[C@]4(C)[C@H]3C[C@H](O)[C@]12C the compound record lists ΔTm as 0.33

* * *

Study target: Mitogen-activated protein kinase 1 (Homo sapiens) (UniProt P28482)
Sequence (P28482 whole entry): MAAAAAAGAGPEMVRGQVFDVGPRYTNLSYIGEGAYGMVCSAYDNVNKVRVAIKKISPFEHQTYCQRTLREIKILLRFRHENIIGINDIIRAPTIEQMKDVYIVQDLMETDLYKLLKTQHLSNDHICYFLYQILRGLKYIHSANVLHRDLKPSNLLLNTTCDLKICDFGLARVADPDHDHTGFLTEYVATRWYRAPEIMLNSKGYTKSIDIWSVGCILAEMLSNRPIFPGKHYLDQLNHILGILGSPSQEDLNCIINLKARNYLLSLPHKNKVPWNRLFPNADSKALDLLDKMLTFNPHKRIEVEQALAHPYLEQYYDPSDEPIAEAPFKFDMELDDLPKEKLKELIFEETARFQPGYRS
Protocol conditions: Compound concentration 20.0 uM, Protein concentration 2.0 uM, Result type QC Liability
Description: Thermal Shift Assay. Domain: start/stop: M1-S360
# ΔTm annotations
Express the result in °C but write the number alone.

// known answers, use as guide
CNc1nc(Nc2ccc(C(=O)N3CCOCC3)cc2OC)ncc1Cl; 0.36
CCC(C(=O)Nc1ccc(-c2cc3ccccc3s2)c(C(N)=O)c1)c1nccs1 (centres undefined); 0.41
Cc1csc(-c2nnc(Nc3ccc(Oc4ncccc4-c4ccnc(N)n4)cc3)c3ccccc23)c1; 4.87
Cc1ccc(NC(=O)c2ccc3c(c2)OCCO3)cc1NC(=O)c1ccc2nc(OCCN3CCCC3)ccc2c1; 0.33
Cc1sc(C(=O)c2cncnc2N[C@@H]2C[C@H](COS(N)(=O)=O)[C@@H](O)C2)cc1[C@@H]1NCCc2ccc(Cl)cc21; -0.53

For record CC(C)(O)c1cn(-c2ccc(-c3cccc(S(C)(=O)=O)c3)cc2)c(C(C)(C)c2ccccc2Cl)n1 the listed ΔTm is 0.15

The value of ΔTm measured for the compound O=C(O)c1ccc2c(c1)nc(NCc1ccccc1)c1ncncc12 turned out to be 0.05

Reported ΔTm of O=C1Nc2nc(-c3c(O)cccc3OCC3CC3)cc([C@@H]3CCCNC3)c2CO1 : 1.1

Input C/C(=C\C(=O)Nc1ccccc1C(=O)O)c1ccc2ccccc2c1 . Output ΔTm: 0.8

* * *

Study target: Mitogen-activated protein kinase 1 (Homo sapiens) (UniProt P28482)
Protocol conditions: Compound concentration 20.0 uM, Protein concentration 2.0 uM, Result type QC Liability
Numbered stars: 1 amine (or outer) side, 2 acyl side, 3 side chain; on linkers, the order of the positions; unused ones are H or OH. Bridge positions count the residues as written; N and C are the ends. Square brackets hold non-standard residues; d marks the D form. Peptide text beside a SMILES is read from it. I, II: the chains in the order shown. Hexamethylenediamine = C(CCCN[*:2])CCN[*:1]; Dip = N[C@H](C(=O)O)C(c1ccccc1)c1ccccc1; Chg = N[C@H](C(=O)O)C1CCCCC1; NMeA = CN[C@@H](C)C(=O)O
Checkbox rule: ΔTm lower than 0.2 °C = T; ΔTm not lower than 0.2 °C = F.

Cn1c(C2(NC(=O)c3ccc(NCC4CCCCC4)nc3)CCC2)nc2ccc(/C=C/C(=O)O)cc21; T
Cn1cnc(Cn2ccc3ccc(CNCc4[nH]c5ccccc5c4[C@H]4NC(=O)c5ccc(O)cc54)cc32)c1; F
Cc1c(CCC(=O)O)cccc1NC(=O)[C@@H](c1ccc(-c2cncc(Cl)c2)c(F)c1)C1CCCC1; T

Query: Criterion: ΔTm strictly below 0.2 °C. Is it met by COc1cc(-c2cn(C)c(=O)c3cnccc23)cc(OC)c1CN(C)C ?
Result: F

Query: Is 0.2 °C strictly greater than the compound's reported ΔTm? compound: CN[C@@H](C)C(=O)N[C@H](C(=O)N1CCC[C@H]1C(=O)N[C@H](C(=O)NCCCCCCNC(=O)[C@@H](NC(=O)[C@@H]1CCCN1C(=O)[C@@H](NC(=O)[C@H](C)NC)C1CCCCC1)C(c1ccccc1)c1ccccc1)C(c1ccccc1)c1ccccc1)C1CCCCC1 (I: H-[NMeA][Chg]P[Dip] / II: H-[NMeA][Chg]P[Dip]; linker I:C-II:C via Hexamethylenediamine)
Result: T

Query: Does Fc1cccc(-n2cnc3c(NCc4nc5c(F)c(F)ccc5[nH]4)nc(N4CCOCC4)nc32)c1 have ΔTm strictly under 0.2 °C?
Result: F

* * *

Catalogue of ΔTm readings, one per entry.
Study target: Cyclin-dependent kinase 2 (Homo sapiens) (UniProt P24941)
Protocol conditions: Compound concentration 20.0 uM, Protein concentration 2.0 uM, Result type QC Liability
Description: Thermal Shift Assay. Domain: start/stop: M1-L298
Respond numerically; units are °C and should not be typed.

O=C1CCCN1CCNc1nc(Nc2ccc(Cl)c(Cl)c2)ncc1C(F)(F)F; 5.26
CC(=O)Nc1ncc(CN2CCC[C@H](Cc3cc(C)nc(C)c3)C2)s1; -0.34
Cc1cccc(-c2[nH]c(CNc3ccccc3F)nc2-c2ccc3ncnn3c2)n1; 0.92
CCc1ccccc1C(=O)Nc1n[nH]c2c(C)c(F)c(C3C(C#N)=C(C)N(C)C(C)=C3C#N)cc12; 1.35
CCn1c(CNC(=O)c2nc(Cl)cnc2N)[n+](CC)c2ccc(C(=O)N(C)CCN(C)C)cc21; 0.44

# CC1CNCCc2c1nc1ccnn1c2N1CC(C(=O)N2CCC(C)(C)C2)C1 (configuration not stated) with Cyclin-dependent kinase 2 (Homo sapiens) (UniProt P24941): ΔTm is 0.37

Record for CN(C)C/C=C/C(=O)Nc1ccc(C(=O)Nc2cccc(Nc3ncc(Cl)c(-c4c[nH]c5ccccc45)n3)c2)cc1 under target or system Cyclin-dependent kinase 2 (Homo sapiens) (UniProt P24941): ΔTm reported as 7.89

Note to self: ΔTm of Cc1nc2ccc(Oc3ccc(F)cc3)cc2c(=O)n1C[C@H]1CCCN(C(C)C)C1 with Cyclin-dependent kinase 2 (Homo sapiens) (UniProt P24941) was 0.32

For Cc1cc(OC2CCS(=O)(=O)CC2)cc(C)c1-c1cccc(COc2ccc(CCC(=O)O)c(F)c2)c1 on Cyclin-dependent kinase 2 (Homo sapiens) (UniProt P24941), measured ΔTm was -2.34
